In this section, each of the binders is paired with its reported Stimulation Index, FXa generation assay, 800 nM OA antibody.
target: human plasma-derived Factor IXa (human, UniProt P00740 47-191; P00740 227-461); experiment: cell-based or functional assay
Sequence (P00740 47-191, chain 1 of 2): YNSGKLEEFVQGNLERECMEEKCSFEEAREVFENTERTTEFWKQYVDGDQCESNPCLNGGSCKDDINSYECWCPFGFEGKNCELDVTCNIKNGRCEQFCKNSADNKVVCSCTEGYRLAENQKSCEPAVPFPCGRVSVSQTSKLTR
Sequence (P00740 227-461, chain 2 of 2): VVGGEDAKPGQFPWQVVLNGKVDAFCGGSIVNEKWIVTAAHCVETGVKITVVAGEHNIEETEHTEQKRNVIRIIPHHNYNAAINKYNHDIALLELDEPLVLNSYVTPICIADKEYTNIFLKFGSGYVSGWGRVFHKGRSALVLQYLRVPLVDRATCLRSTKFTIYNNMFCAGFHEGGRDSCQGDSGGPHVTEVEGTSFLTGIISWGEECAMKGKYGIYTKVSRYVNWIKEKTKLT
Just the number please, in fold, no unit attached.

Worked examples, 2 binders total:
BINDER: one-armed (OA) mAb11-0107 (antibody, V domains shown) VH: EVQLVESGGGLVQPGRSLKLSCAASGFTFHDYAMHWVRQVPGKGLEWVSGISWRGDIGGYVKSVKGRFTISRDNAKNSLYLQLNSLRAEDTALYYCVKSYGSGSFYNAFDSWGQGTLVTVSS VL: DIQMTQSPSTLSASVGDEVTITCRASQSISSWLAWYQQKPGKAPKFLIYKAQRLDRGTPQRFSGSGSGTEFTLTISSLQPDDFATYYCLEYSSYIRTFGQGTKVEIK
RESULT VALUE: 3260
//
BINDER: one-armed (OA) mAb11-0937 (antibody, V domains shown) VH: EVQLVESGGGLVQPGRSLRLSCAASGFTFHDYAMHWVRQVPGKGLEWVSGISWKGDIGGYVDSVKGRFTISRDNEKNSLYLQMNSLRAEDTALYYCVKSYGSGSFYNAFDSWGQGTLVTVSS VL: DIQMTQSPSTLSASVGDRVTITCRASQSISSWLAWYQQKPGKAPKFLIYKASRLDRGSPSRFSGSGSGTEFSLTISSLQPDDFATYYCLEYSSYIRTFGQGTKVEIK
RESULT VALUE: 2680

Item one-armed (OA) mAb11-1344 (antibody, V domains shown) VH: EVQLVESGGGLVQPGRSLKLSCAASGFTFDDYAMHWVRQVPGKGLEWVSGISWKGDIGGYVDSVKGRFTISRDNAKNSLYLQLNSLRAEDTALYYCAKSYGSGSFYNAFDSWGQGTLVTVSS VL: DIQMTQSPSTLSASAGDRVTITCRASQSISSWLAWYQQKPGKAPKFLIYKASKLDRGTPSRFSGSGSGTEFSLTISSLQPDDFATYYCLEYSSYIRTFGQGTKVEIK has what recorded Stimulation Index, FXa generation assay, 800 nM OA antibody? 4660

Same again, this time with one-armed (OA) mAb11-1021 (antibody, V domains shown) VH: EVQLVESGGGLVQPGRSLRLSCAASKFTFHDYAMHWVRQAPGKGLEWVSGISWKGDIGGYVDSVKGRFTISRDNAKNSLYLQMNSLRAEDTALYYCAKSYGSGSFYNAFDSWGQGTLVTVSS VL: DIQMTQSPSTLSASVGDRVTITCRASQSISSWLAWYQQKPGKAPKFLIYKASKLDRGTPSRFSGSGSGTEFTLTISSLQPDDFATYYCLEYSSYIRTFGQGTKVEIK 4650

Thanks! And one-armed (OA) mAb11-0149 (antibody, V domains shown) VH: EVQLVESGGGLVQPGRSLKLSCAASGFTFDDYAMHWVRQAPGKGLEWVSGISWKGDIGGYVDSVKGRFTISRDNAKNSLYLQMNSLRAEDTALYYCVKSYGSGSFYNAFDSWGQGTLVTVSS VL: DIQMTQSPSTLSASAGDEVTITCRASQSIKSWLAWYQQKPGKAPKFLIYKASRLDRGTPQRFSGSGSGTEFSLTISRLQPDDFATYYCLEYSSYIRTFGQGTKVEIK ? 3320

Please give the result for one-armed (OA) mAb11-0929 (antibody, V domains shown) VH: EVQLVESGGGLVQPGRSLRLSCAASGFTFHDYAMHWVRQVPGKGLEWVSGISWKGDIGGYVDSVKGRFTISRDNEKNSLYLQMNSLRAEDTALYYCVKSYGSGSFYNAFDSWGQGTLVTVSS VL: DIQMTQSPSTLSASVGDRVTITCRASQSISSWLAWYQQKPGKAPKFLIYKASRLDRGIPSRFSGSGSGTEFSLTISSLQPDDFATYYCLEYSSYIRTFGQGTKVEIK too. 1560

Then what about the binder one-armed (OA) mAb11-1282 (antibody, V domains shown) VH: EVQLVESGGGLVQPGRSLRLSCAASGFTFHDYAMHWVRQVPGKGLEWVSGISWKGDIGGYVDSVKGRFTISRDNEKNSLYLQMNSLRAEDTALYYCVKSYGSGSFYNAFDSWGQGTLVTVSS VL: DIQMTQSPSTLSASVGDRVTITCRASQSISSWLAWYQQKPGKAPKFLIYKASRLDRGTPSRFSGSGSGTEFSLTISSLQPDDFATYYCLEYSSWIRTFGQGTKVEIK ? 1460

Check one-armed (OA) mAb11-0049 (antibody, V domains shown) VH: EVQLVESGGGLVQPGRSLRLSCAASGFTFHDYAMHWVRQAPGKGLEWVSGISWRGDIKGYVDSVKGRFTISRDNAKNSLYLQLNSLRAEDTALYYCAKSYGSGSFYNAFDSWGQGTLVTVSS VL: DIQMTQSPSTLSASAGDRVTISCRASQSISSWLAWYQQKPGKAPKLLIYKASRLDRGTPSRFSGSGSGTEFTLTISSLQPDDFATYYCLEYNSYIRTFGQGTKVEIK too. 1510

Similarly, one-armed (OA) mAb11-1266 (antibody, V domains shown) VH: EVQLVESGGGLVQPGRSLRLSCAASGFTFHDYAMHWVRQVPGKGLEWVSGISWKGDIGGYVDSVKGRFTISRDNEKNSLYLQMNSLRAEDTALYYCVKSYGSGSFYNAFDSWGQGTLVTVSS VL: DIQMTQSPSTLSASVGDRVTITCRASQSISSWLAWYQQKPGKAPKFLIYKASRLDKGTPSRFSGSGSGTEFSLTISSLQPDDFATYYCLEYSSYIRTFGQGTKVEIK ? 1700

// query: one-armed (OA) mAb11-0160 (antibody, V domains shown) VH: EVQLVESGGGLVQPGRSLKLSCAASGFRFDDYAMHWVRQVPGKGLEWVSGISWKGDIGGYADSVKGRFTISRDNAKNSLYLQLNSLRAEDTALYYCVKSYGSGSFYNAFDSWGQGTLVTVSS VL: DIQMTQSPSTLSASVGDEVTITCRASKSISSWLAWYQQKPGKAPRFLIYKASRLERGTPQRFSGSGSGTEFTLTIYSLQPDDFATYYCLEYSSYIRTFGQGTKVEIK 4550

Data origin, for the record: patent US20260193376A1
